Experiment: Single oral dose human plasma pharmacokinetics of D, DA and DOH after Cogni.Q
Assay type: in vivo
Conditions: human, plasma, oral, 4 Cogni.Q vegicaps, subject S15 (177 lb); read-out: AUC0-48h
Readout Kind: AUC(0-t) (µM·h)
Supply the numeric figure in µM·h, leaving out any unit text.

Quick note, AUC(0-t) for CC(C)=CC(=O)O[C@H]1Cc2cc3ccc(=O)oc3cc2OC1(C)C [D, decursin] landed at 0.0238

Quick note, AUC(0-t) for C/C=C(/C)C(=O)O[C@H]1Cc2cc3ccc(=O)oc3cc2OC1(C)C [DA, decursinol angelate] landed at 0.512

Quick note, AUC(0-t) for CC1(C)Oc2cc3oc(=O)ccc3cc2C[C@@H]1O [DOH, decursinol] landed at 26.1
